# ASSAY COMMENT: Aqueous solubility of the compound
# Format: physicochemical
List of solubility values.

Use the examples below as a reference point.
# COMPOUND SMILES, OBSERVED VALUE
measured = [
    ("CNc1nc(OC2CCCC2)nc2c1ncn2Cc1c(F)cccc1F", "9 µM"),
    ("CNC(=O)c1sc(N2CC3CC2(CNC(=O)c2c[nH]c4ncc(Cl)cc24)C3)nc1C(F)(F)F", "2 µM"),
    ("Cc1cc(N(C)C)ccc1-c1nnc(N(C)Cc2ccc3nccn3c2)o1", "23 µM"),
    ("COc1cc2ncnc(Nc3cnc(OCCC4CC4)nc3)c2cc1OCC1CCNCC1", "260 µM"),
    ("CNC(=O)c1sc(N2CC3CC2(CNC(=O)c2c[nH]c4ncc(C(F)(F)F)cc24)C3)nc1C(F)(F)F", "< 1.6 µM"),
    ("CN(Cc1ccc2nccn2c1)c1nnc(-c2ccc(-c3ccccc3Cl)cc2)o1", "1.1 µM"),
    ("CN(Cc1ccc2c(c1)CCCO2)c1nnc(-c2ccc(-c3ccccc3Cl)cc2)o1", "0.1 µM"),
    ("CCn1c(-c2nnc(N(C)Cc3ccc4nccn4c3)o2)nc2ccccc21", "120 µM"),
]

Which solubility value is on record for "Cc1c(C(=O)Nc2ccc(Oc3ccnc4[nH]cc(-c5ccccc5)c34)c(F)c2)c(=O)n(-c2ccc(F)cc2)n1C" ?
0.01 µM

Which solubility value is on record for "CNC(=O)c1sc(N2CC3CC2(CNC(=O)c2c[nH]c4ncc(C)cc24)C3)nc1C(F)(F)F" ?
< 1.6 µM

Which solubility value is on record for "CS(=O)(=O)c1cnc(Nc2ccc(O)cc2)nc1NCc1ccccc1" ?
27 µM

Which solubility value is on record for "CNC(=O)c1cnc(Nc2ccc(OC)cc2C)nc1NC1CCCC1" ?
10 µM

Numbers sourced from ChEMBL document CHEMBL4732252.
